Just for reference, patent US7022716B2 is where these values come from.

For each of the molecules below, state its IA(β3).
- TGT: human β3 adrenergic receptor (Homo sapiens, UniProt P13945)
- Construct: Full length β3 AR clones (402 amino acids) containing the last 6 amino acids of hβ3-AR are prepared; expressed in transfected cells; host or cells: CHO (Chinese hamster ovary) cells
- Sequence (P13945 whole entry): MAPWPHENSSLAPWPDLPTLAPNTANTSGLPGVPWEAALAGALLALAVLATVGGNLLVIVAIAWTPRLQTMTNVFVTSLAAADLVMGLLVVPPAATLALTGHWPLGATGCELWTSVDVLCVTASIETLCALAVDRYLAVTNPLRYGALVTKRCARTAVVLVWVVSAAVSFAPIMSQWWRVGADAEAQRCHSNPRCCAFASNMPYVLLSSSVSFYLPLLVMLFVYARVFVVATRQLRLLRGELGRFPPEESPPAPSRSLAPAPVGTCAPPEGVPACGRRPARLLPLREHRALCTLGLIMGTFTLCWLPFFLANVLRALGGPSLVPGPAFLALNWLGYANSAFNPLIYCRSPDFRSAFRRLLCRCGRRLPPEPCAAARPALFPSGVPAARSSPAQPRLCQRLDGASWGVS
- PROTOCOL_SUMMARY: cAMP (SPA) response in CHO cells transfected with human β3 adrenergic receptor
- Format: cell-based
- Set-up: key: fraction of maximal isoproterenol (10^-5 M) response
- MEASUREMENT_SETUP: maximal response relative to maximal response of isoproterenol at 10^-5 M
Simply state the number, no unit and no words.

Data point: CC(=O)Nc1ccc(S(=O)(=O)Nc2ccc(N3CCC(NC[C@H](O)COc4ccccc4)CC3)cc2)cc1 [Example 272] ; IA(β3) = 0.57

Data point: O=C1NC(=O)C(=Cc2ccc(N3CCC(NC[C@H](O)COc4cccc5[nH]c(=O)[nH]c45)CC3)cc2)S1 [Example 75] ; IA(β3) = 1.08

Data point: CS(=O)(=O)Nc1cc([C@@H](O)CNC2CCN(c3ccc(-c4nnn(CC(=O)O)n4)cc3)CC2)ccc1O [Example 100] ; IA(β3) = 0.9

Data point: CCCCS(=O)(=O)Nc1ccc(N2CCC(NC[C@H](O)COc3cccc4[nH]c(=O)[nH]c34)CC2)cc1 [Example 296] ; IA(β3) = 0.81

Data point: CS(=O)(=O)Nc1cc([C@@H](O)CNC2CCN(c3ccc(NS(=O)(=O)c4ccc(C(=O)O)cc4)cc3)CC2)ccc1O [Example 317] ; IA(β3) = 0.97

Data point: CC(=O)Nc1ccc(S(=O)(=O)Nc2ccc(N3CCC(NCC(O)c4ccc(O)c(NS(C)(=O)=O)c4)CC3)cc2)cc1 (stereo not shown) [Example 270] ; IA(β3) = 1.09

Data point: O=C1NC(=O)C(Cc2ccc(S(=O)(=O)Nc3ccc(N4CCC(NC[C@H](O)COc5cccc6[nH]c(=O)[nH]c56)CC4)cc3)cc2)S1 (stereo partly shown) [Example 301] ; IA(β3) = 0.95
